test system: 883617-216-R-J1-PDC complex spheroid viability; assay: Anticancer human tumor 883617-216-R-J1-PDC patient-derived bladder carcinoma cell line growth inhibition [POLQ]; details: second compound 3.16 µM; first compound 0.316 µM; stronger effect = lower value
Give viability, T/C for every item shown.
Numbers only, in %.

compound="O=c1[nH]cc(F)c(=O)[nH]1 + Cc1cccc(N(C)C(=O)C2C(O)CCN2c2nc(C)cc(C(F)(F)F)c2C#N)c1" test_system="883617-216-R-J1-PDC complex spheroid viability" observed_measurement=104
compound="COc1cccc2c1C(=O)c1c(O)c3c(c(O)c1C2=O)CC(O)(C(=O)CO)CC3OC1CC(N)C(O)C(C)O1 (stereo not given) + Cc1cccc(N(C)C(=O)C2C(O)CCN2c2nc(C)cc(C(F)(F)F)c2C#N)c1" test_system="883617-216-R-J1-PDC complex spheroid viability" observed_measurement=43.7
compound="Nc1ccn(C2OC(CO)C(O)C2(F)F)c(=O)n1 (stereo not given) + Nc1ccc(C#CCN(C(=O)Cc2ncc(C(F)(F)F)cc2C(F)(F)F)c2ccc(F)cc2)nn1" test_system="883617-216-R-J1-PDC complex spheroid viability" observed_measurement=35.4

Please report viability, T/C for every entry that follows.
1. COc1ccc([C@@H](O)c2cc(-c3ncnc4cc(N5CCOCC5)ccc34)c(F)cc2Cl)nn1 + Cc1cccc(N(C)C(=O)C2C(O)CCN2c2nc(C)cc(C(F)(F)F)c2C#N)c1
2. COc1cccc(OCCCN)c1-c1cc(Nc2cnc(C#N)cn2)n[nH]1 + COC1C(OC(N)=O)C(O)C(Oc2ccc3c(O)c(NC(=O)c4ccc(O)c(CC=C(C)C)c4)c(=O)oc3c2C)OC1(C)C

1. 90.4
2. 39.6

Provide each entry's viability, T/C from the list below.
1. O=c1[nH]cc(F)c(=O)[nH]1 + Nc1ccc(C#CCN(C(=O)Cc2ncc(C(F)(F)F)cc2C(F)(F)F)c2ccc(F)cc2)nn1
2. CCc1c2c(nc3ccc(O)cc13)-c1cc3c(c(=O)n1C2)COC(=O)[C@]3(O)CC + Nc1ccc(C#CCN(C(=O)Cc2ncc(C(F)(F)F)cc2C(F)(F)F)c2ccc(F)cc2)nn1
3. CC(C)n1c(=O)n(C)c2cnc3cc(F)c(-c4ccc(OCCCN5CCCCC5)nc4)cc3c21 + COC1C(OC(N)=O)C(O)C(Oc2ccc3c(O)c(NC(=O)c4ccc(O)c(CC=C(C)C)c4)c(=O)oc3c2C)OC1(C)C
4. COc1cccc(OCCCN)c1-c1cc(Nc2cnc(C#N)cn2)n[nH]1 + Nc1ccc(C#CCN(C(=O)Cc2ncc(C(F)(F)F)cc2C(F)(F)F)c2ccc(F)cc2)nn1
5. O=C(c1cc(Cc2n[nH]c(=O)c3ccccc23)ccc1F)N1CCN(C(=O)C2CC2)CC1 + Cc1cccc(N(C)C(=O)C2C(O)CCN2c2nc(C)cc(C(F)(F)F)c2C#N)c1

1: 101; 2: 45.9; 3: 110; 4: 47.1; 5: 90.5

* * *

Please respond with reported IC50 for every item in the list.
test system: 883617-216-R-J1-PDC complex spheroid viability; test: Anticancer human tumor 883617-216-R-J1-PDC cell line growth inhibition [POLQ]; settings: curve of first compound; second compound 0.0316 µM;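 also: spheroids exposed to compounds for seven days before readout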

Worked cases, IC50 given:
compound="CC1COCCN1c1cc(-c2ccnn2C)c2ccnc(-c3ccn[nH]3)c2n1 (stereo not drawn) + Cc1cccc(N(C)C(=O)C2C(O)CCN2c2nc(C)cc(C(F)(F)F)c2C#N)c1" observed_measurement="0.205 µM"
compound="O=C(c1cc(Cc2n[nH]c(=O)c3ccccc23)ccc1F)N1CCN(C(=O)C2CC2)CC1 + Nc1ccc(C#CCN(C(=O)Cc2ncc(C(F)(F)F)cc2C(F)(F)F)c2ccc(F)cc2)nn1" observed_measurement="> 10 µM"

# IC50 lookup, item CCCS(=O)(=O)Nc1ccc(F)c(C(=O)c2c[nH]c3ncc(-c4ccc(Cl)cc4)cc23)c1F + Cc1cccc(N(C)C(=O)C2C(O)CCN2c2nc(C)cc(C(F)(F)F)c2C#N)c1 > 10 µM
